Measured Target: T1, HLA DPB1*05:01 (human)
T1 construct: purified HLA class II molecule; only the beta-chain allele is printed
Experiment Summary: competition with radiolabeled peptide, purified HLA
Where no end group is shown, it is not given here. [ ]: non-standard residue; d: D form. pY = N[C@@H](Cc1ccc(OP(=O)(O)O)cc1)C(=O)O
Readout Kind: pIC50
// field semantics: pIC50 = negative decimal log of concentration (mol/L)

[in] Please give the measured pIC50 for this binder: KTKEGVL[pY]VGSKTKE (synthetic post-translationally modified 15-mer; also called Phospho-Y) [alpha-syn peptide aa32KTKEGVLYVGSKTKEaa46 phosphorylated at Y39]
[out] 6.11
